target: recombinant murine αvβ6 integrin (murine) (UniProt P43406); test: direct integrin binding assay (near-infrared fluorescence scan of plates); microtiter plates coated with αvβ6 or αvβ8; peptide-IRDye conjugates incubated 1 h, washed, bound fluorescence read with Odyssey CLx; EC50
Sequence (P43406 whole entry, chain 1 of 2): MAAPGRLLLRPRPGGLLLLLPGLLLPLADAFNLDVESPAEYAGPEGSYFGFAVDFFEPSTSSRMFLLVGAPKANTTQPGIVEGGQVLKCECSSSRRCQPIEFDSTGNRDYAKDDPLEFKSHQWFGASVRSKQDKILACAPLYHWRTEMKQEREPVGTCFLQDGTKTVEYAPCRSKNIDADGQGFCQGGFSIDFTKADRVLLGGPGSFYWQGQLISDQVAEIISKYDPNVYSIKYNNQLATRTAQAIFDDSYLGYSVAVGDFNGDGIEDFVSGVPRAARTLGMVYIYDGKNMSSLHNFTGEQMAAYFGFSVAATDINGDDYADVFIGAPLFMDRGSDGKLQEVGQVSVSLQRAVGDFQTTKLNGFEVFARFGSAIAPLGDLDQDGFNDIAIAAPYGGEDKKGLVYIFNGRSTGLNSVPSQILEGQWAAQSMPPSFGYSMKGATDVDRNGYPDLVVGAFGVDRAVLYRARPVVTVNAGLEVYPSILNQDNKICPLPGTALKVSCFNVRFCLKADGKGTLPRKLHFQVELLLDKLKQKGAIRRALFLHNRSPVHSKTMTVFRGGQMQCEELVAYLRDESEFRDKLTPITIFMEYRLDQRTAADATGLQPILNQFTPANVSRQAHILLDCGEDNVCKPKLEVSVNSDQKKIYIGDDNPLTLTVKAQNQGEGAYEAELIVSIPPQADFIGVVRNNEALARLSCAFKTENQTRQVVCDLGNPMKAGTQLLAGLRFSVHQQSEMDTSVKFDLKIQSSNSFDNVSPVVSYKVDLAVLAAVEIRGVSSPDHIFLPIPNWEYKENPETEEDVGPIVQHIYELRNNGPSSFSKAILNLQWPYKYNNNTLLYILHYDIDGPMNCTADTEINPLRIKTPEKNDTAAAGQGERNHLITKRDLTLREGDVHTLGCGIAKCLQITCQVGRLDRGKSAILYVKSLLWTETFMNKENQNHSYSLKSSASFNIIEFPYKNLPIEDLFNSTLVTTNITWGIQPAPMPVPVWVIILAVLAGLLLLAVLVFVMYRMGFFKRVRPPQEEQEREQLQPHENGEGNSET
Sequence (Q9Z0T9 whole entry, chain 2 of 2, further chain): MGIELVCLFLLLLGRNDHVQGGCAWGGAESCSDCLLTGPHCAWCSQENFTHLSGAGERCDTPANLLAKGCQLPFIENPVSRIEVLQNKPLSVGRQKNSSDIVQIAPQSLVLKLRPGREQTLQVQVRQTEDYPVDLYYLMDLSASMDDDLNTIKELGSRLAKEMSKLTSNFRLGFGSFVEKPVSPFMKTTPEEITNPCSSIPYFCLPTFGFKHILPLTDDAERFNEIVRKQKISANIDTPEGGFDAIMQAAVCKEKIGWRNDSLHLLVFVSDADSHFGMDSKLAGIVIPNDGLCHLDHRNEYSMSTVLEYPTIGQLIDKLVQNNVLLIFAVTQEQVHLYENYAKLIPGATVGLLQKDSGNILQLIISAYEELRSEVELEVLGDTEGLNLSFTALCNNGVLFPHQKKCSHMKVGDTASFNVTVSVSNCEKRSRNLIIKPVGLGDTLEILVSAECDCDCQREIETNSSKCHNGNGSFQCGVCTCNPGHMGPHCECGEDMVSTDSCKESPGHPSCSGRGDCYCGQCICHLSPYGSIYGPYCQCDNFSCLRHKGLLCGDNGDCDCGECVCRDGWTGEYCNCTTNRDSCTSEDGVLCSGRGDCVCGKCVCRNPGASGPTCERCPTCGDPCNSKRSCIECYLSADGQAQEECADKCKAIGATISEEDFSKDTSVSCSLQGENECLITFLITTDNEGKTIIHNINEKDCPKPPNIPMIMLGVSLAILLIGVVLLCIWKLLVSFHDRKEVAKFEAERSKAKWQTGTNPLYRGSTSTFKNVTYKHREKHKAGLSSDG
pEC50: −log10 of the molar value. Ends that are not written are not given here.
measurement type: pEC50

Exam item: Look up and report measured pEC50 for this entry: C(maleimide‑IRDye 800CW)FETLRGEERILSILRHQNLLKELQD-NH2 [2a-IRDye conjugate]
Marked response: < 7.00
